test system: blood platelets (platelet-rich plasma); assay: Test for the inhibition of platelet aggregation (collagen-induced, platelet-rich plasma); assay type: cell-based, male white rabbits; conditions: Oryctolagus cuniculus, Platelet, 0.05 h; depressing ratio of 50% of collagen-induced aggregation; compound 3 minutes before; read-out: Antiplatelet aggregation activity: MED
What minimal effective concentration was measured for each of the following?
Provide the reading as a plain figure in µg/mL.

// sample CCN(CC)CCNC1c2ccccc2COc2ccc(F)cc21 (stereo not drawn) , its minimal effective concentration was 50

// sample CCN(CC)CCCNC1c2ccccc2COc2c(C)cccc21 (stereo not drawn) , its minimal effective concentration was 20

// sample CN(C)CCCNC1c2ccccc2COc2ccc(Cl)cc21 (stereo not drawn) , its minimal effective concentration was 50

// sample OCCN1CCN(C2c3ccccc3COc3c(-c4ccccc4)cccc32)CC1 (stereo not drawn) , its minimal effective concentration was 100

// sample Fc1ccc(C(c2ccc(F)cc2)N2CCN(C3c4ccccc4COc4ccc(F)cc43)CC2)cc1 (stereo not drawn) , its minimal effective concentration was 100

// sample COc1ccc2c(c1)C(NC1CN3CCC1CC3)c1ccccc1CO2 (stereo not drawn) , its minimal effective concentration was 100

// sample CCN1CCCC1CNC1c2ccccc2COc2ccc(C)cc21 (stereo not drawn) , its minimal effective concentration was 50

// sample CCN(CC)CCCNC1c2ccccc2COc2ccc(C)cc21 (stereo not drawn) , its minimal effective concentration was 20

// sample Clc1ccc2c(c1)C(NC1CN3CCC1CC3)c1ccccc1CO2 (stereo not drawn) , its minimal effective concentration was 100

---

What Acute toxicity: MLD (minimum lethal dose) was measured for each of the following?
system: male dd-strain rats; test: Acute toxicity test (minimum lethal dose); assay type: in vivo; details: ip; mortality for 7 days

Acute toxicity: MLD (minimum lethal dose) of Fc1ccc(C(NC2c3ccccc3COc3ccc(F)cc32)c2ccc(F)cc2)cc1 (centres unmarked) , assay on male dd-strain rats, is > 100 mg/kg

Acute toxicity: MLD (minimum lethal dose) of CCc1ccc2c(c1)C(NCCN1CCNCC1)c1ccccc1CO2 (centres unmarked) , assay on male dd-strain rats, is > 100 mg/kg

Acute toxicity: MLD (minimum lethal dose) of OCCN1CCN(C2c3ccccc3COc3c(-c4ccccc4)cccc32)CC1 (centres unmarked) , assay on male dd-strain rats, is > 100 mg/kg

Acute toxicity: MLD (minimum lethal dose) of CCN(CC)CCCNC1c2ccccc2COc2ccc(OC)cc21 (centres unmarked) , assay on male dd-strain rats, is 100 mg/kg

Acute toxicity: MLD (minimum lethal dose) of CCc1ccc2c(c1)C(NC1CN3CCC1CC3)c1ccccc1CO2 (centres unmarked) , assay on male dd-strain rats, is 100 mg/kg

Acute toxicity: MLD (minimum lethal dose) of NCCN1CCN(C2c3ccccc3COc3ccc(F)cc32)CC1 (centres unmarked) , assay on male dd-strain rats, is > 100 mg/kg

Acute toxicity: MLD (minimum lethal dose) of c1ccc(-c2ccc3c(c2)C(NC2CN4CCC2CC4)c2ccccc2CO3)cc1 (centres unmarked) , assay on male dd-strain rats, is > 100 mg/kg

Acute toxicity: MLD (minimum lethal dose) of Cc1ccc2c(c1)C(NCCN1CCNCC1)c1ccccc1CO2 (centres unmarked) , assay on male dd-strain rats, is > 100 mg/kg

Acute toxicity: MLD (minimum lethal dose) of CN(C)CCNC1c2ccccc2COc2ccc(Cl)cc21 (centres unmarked) , assay on male dd-strain rats, is > 100 mg/kg

Acute toxicity: MLD (minimum lethal dose) of CCC(C)c1ccc2c(c1)C(NCCN(CC)CC)c1ccccc1CO2 (centres unmarked) , assay on male dd-strain rats, is 100 mg/kg

Acute toxicity: MLD (minimum lethal dose) of Cc1ccc2c(c1)C(N1CCN(CCO)CC1)c1ccccc1CO2 (centres unmarked) , assay on male dd-strain rats, is > 100 mg/kg

Acute toxicity: MLD (minimum lethal dose) of Fc1ccc2c(c1)C(NCCN(Cc1ccccc1)Cc1ccccc1)c1ccccc1CO2 (centres unmarked) , assay on male dd-strain rats, is > 100 mg/kg

Acute toxicity: MLD (minimum lethal dose) of CN1CCN(C2c3ccccc3COc3ccc(Cl)cc32)CC1 (centres unmarked) , assay on male dd-strain rats, is 100 mg/kg

Acute toxicity: MLD (minimum lethal dose) of CCc1ccc2c(c1)C(NC1CC(C)(C)NC(C)(C)C1)c1ccccc1CO2 (centres unmarked) , assay on male dd-strain rats, is 100 mg/kg

Acute toxicity: MLD (minimum lethal dose) of Cc1ccc2c(c1)C(NCCN1CCCC1)c1ccccc1CO2 (centres unmarked) , assay on male dd-strain rats, is > 100 mg/kg

Acute toxicity: MLD (minimum lethal dose) of Cc1ccc2c(c1)C(N1CCN(CCN)CC1)c1ccccc1CO2 (centres unmarked) , assay on male dd-strain rats, is 100 mg/kg

Acute toxicity: MLD (minimum lethal dose) of Fc1ccc(C(c2ccc(F)cc2)N2CCN(C3c4ccccc4COc4ccc(F)cc43)CC2)cc1 (centres unmarked) , assay on male dd-strain rats, is > 100 mg/kg

Acute toxicity: MLD (minimum lethal dose) of Clc1ccc2c(c1)C(NC1CN3CCC1CC3)c1ccccc1CO2 (centres unmarked) , assay on male dd-strain rats, is 100 mg/kg

Acute toxicity: MLD (minimum lethal dose) of CCN(CC)CCNC1c2ccccc2COc2ccc(Cl)cc21 (centres unmarked) , assay on male dd-strain rats, is > 100 mg/kg

Acute toxicity: MLD (minimum lethal dose) of Cc1ccc2c(c1)C(NCCN(C)C)c1ccccc1CO2 (centres unmarked) , assay on male dd-strain rats, is > 100 mg/kg

Acute toxicity: MLD (minimum lethal dose) of CC(CCc1ccccc1)NC1c2ccccc2COc2ccc(F)cc21 (centres unmarked) , assay on male dd-strain rats, is > 100 mg/kg

Acute toxicity: MLD (minimum lethal dose) of CCN1CCCC(NC2c3ccccc3COc3ccc(C)cc32)C1 (centres unmarked) , assay on male dd-strain rats, is > 100 mg/kg

Acute toxicity: MLD (minimum lethal dose) of CCN(CC)CCCNC1c2ccccc2COc2ccc(Cl)cc21 (centres unmarked) , assay on male dd-strain rats, is > 100 mg/kg

Acute toxicity: MLD (minimum lethal dose) of CCc1ccc2c(c1)C(Nc1cccc3ncccc13)c1ccccc1CO2 (centres unmarked) , assay on male dd-strain rats, is > 100 mg/kg

Acute toxicity: MLD (minimum lethal dose) of OCCN1CCN(C2c3ccccc3COc3ccc(F)cc32)CC1 (centres unmarked) , assay on male dd-strain rats, is 100 mg/kg

Acute toxicity: MLD (minimum lethal dose) of Fc1ccc2c(c1)C(NCC1COc3ccccc3O1)c1ccccc1CO2 (centres unmarked) , assay on male dd-strain rats, is > 100 mg/kg

Acute toxicity: MLD (minimum lethal dose) of CCc1ccc2c(c1)C(NCCN(C)C)c1ccccc1CO2 (centres unmarked) , assay on male dd-strain rats, is > 100 mg/kg

Acute toxicity: MLD (minimum lethal dose) of CCc1ccc2c(c1)C(NCCN(CC)CC)c1ccccc1CO2 (centres unmarked) , assay on male dd-strain rats, is > 100 mg/kg

Acute toxicity: MLD (minimum lethal dose) of c1ccc(-c2cccc3c2OCc2ccccc2C3NC2CN3CCC2CC3)cc1 (centres unmarked) , assay on male dd-strain rats, is 100 mg/kg

Acute toxicity: MLD (minimum lethal dose) of CN(C)CCNC1c2ccccc2COc2ccc(F)cc21 (centres unmarked) , assay on male dd-strain rats, is > 100 mg/kg

Acute toxicity: MLD (minimum lethal dose) of Cc1ccc2c(c1)C(N1CCN(C)CC1)c1ccccc1CO2 (centres unmarked) , assay on male dd-strain rats, is > 100 mg/kg

Acute toxicity: MLD (minimum lethal dose) of CCN(CCN(C)C)C1c2ccccc2COc2ccc(C)cc21 (centres unmarked) , assay on male dd-strain rats, is > 100 mg/kg

Acute toxicity: MLD (minimum lethal dose) of COc1ccc2c(c1)C(NC1CN3CCC1CC3)c1ccccc1CO2 (centres unmarked) , assay on male dd-strain rats, is 100 mg/kg

Acute toxicity: MLD (minimum lethal dose) of CCc1ccc2c(c1)C(N1CCN(C)CC1)c1ccccc1CO2 (centres unmarked) , assay on male dd-strain rats, is > 100 mg/kg

Acute toxicity: MLD (minimum lethal dose) of Cc1ccc2c(c1)C(NCCCN(C)C)c1ccccc1CO2 (centres unmarked) , assay on male dd-strain rats, is > 100 mg/kg

Acute toxicity: MLD (minimum lethal dose) of CCc1ccc2c(c1)C(N1CCN(CCN)CC1)c1ccccc1CO2 (centres unmarked) , assay on male dd-strain rats, is 100 mg/kg

Acute toxicity: MLD (minimum lethal dose) of CCN(CC)CCNC1c2ccccc2COc2ccc(OC)cc21 (centres unmarked) , assay on male dd-strain rats, is > 100 mg/kg

Acute toxicity: MLD (minimum lethal dose) of CCc1ccc2c(c1)C(NCCCN(C)C)c1ccccc1CO2 (centres unmarked) , assay on male dd-strain rats, is > 100 mg/kg

Acute toxicity: MLD (minimum lethal dose) of CCC(C)c1ccc2c(c1)C(NC1CN3CCC1CC3)c1ccccc1CO2 (centres unmarked) , assay on male dd-strain rats, is 100 mg/kg

Acute toxicity: MLD (minimum lethal dose) of Cc1ccc2c(c1)C(NCCN1CCOCC1)c1ccccc1CO2 (centres unmarked) , assay on male dd-strain rats, is > 100 mg/kg

Acute toxicity: MLD (minimum lethal dose) of Fc1ccc2c(c1)C(NCCOC(c1ccccc1)c1ccccc1)c1ccccc1CO2 (centres unmarked) , assay on male dd-strain rats, is > 100 mg/kg

Where do these numbers come from? They come from patent US4396550A.
